# Experiment Summary: self-splicing fitness, log relative to wild type (ln ratio); higher = more splicing; Tetrahymena group I intron in knt gene, E. coli kanamycin selection, DiMSum; sequences stand for … in CUCUCU…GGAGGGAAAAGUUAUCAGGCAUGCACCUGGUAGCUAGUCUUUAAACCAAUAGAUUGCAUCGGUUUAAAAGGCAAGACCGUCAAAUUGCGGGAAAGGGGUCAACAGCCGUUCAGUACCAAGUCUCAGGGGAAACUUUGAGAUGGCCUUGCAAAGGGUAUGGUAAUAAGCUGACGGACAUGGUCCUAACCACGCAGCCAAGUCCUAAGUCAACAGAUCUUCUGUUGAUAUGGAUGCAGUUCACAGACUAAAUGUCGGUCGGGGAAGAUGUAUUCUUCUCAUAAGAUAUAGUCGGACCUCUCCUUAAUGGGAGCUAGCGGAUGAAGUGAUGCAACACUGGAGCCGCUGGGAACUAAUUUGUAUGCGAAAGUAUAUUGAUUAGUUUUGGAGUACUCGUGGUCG;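 note: selection with 25 µg/mL kanamycin versus none on LB agar overnight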
# Study Conditions: 37 °C
Label 1 when self-splicing fitness (ln) is at or above -2; otherwise label 0.

Query: Please indicate if the recorded self-splicing fitness (ln) for `UUGUAGCAAUAUUACGCUCU` meets or exceeds -2.
Reply: 1

Query: State whether the measured self-splicing fitness (ln) reaches -2, counting equality as reaching it, for `CUCCAGCAAUAUUACGAUAA`
Reply: 0

Query: Confirm if self-splicing fitness (ln) reported for the sequence `CCCCAGCAAUAUUACGCAUG` is -2 or above.
Reply: 0

Query: Check the entry `GCACAGCAAUAUUACGUCAA` : does self-splicing fitness (ln) equal or exceed -2?
Reply: 1

Query: Assess whether reported self-splicing fitness (ln) for `GUAGAGCAAUAUUACGGGAC` sits at -2 or higher.
Reply: 1

Query: Form field: self-splicing fitness (ln) at least -2? Entry: `UGGGAGCAAUAUUACGUAUG`
Reply: 1

Query: Check the entry `UUGGAGCAAUAUUACGCGUC` : does self-splicing fitness (ln) equal or exceed -2?
Reply: 0

Query: State whether the measured self-splicing fitness (ln) reaches -2, counting equality as reaching it, for `GUCGAGCAAUAUUACGUAUG`
Reply: 1

Query: Given `UAAUAGCAAUAUUACGUGCA` , state whether its self-splicing fitness (ln) is at least -2.
Reply: 1

Query: Hi, just wondering whether `CCCGAGCAAUAUUACGAGAG` shows self-splicing fitness (ln) of -2 or higher.
Reply: 0

Query: Say whether `UUCGAGCAAUAUUACGGAUU` shows self-splicing fitness (ln) of -2 or more.
Reply: 0

Query: State whether the measured self-splicing fitness (ln) reaches -2, counting equality as reaching it, for `UGGCAGCAAUAUUACGGCGA`
Reply: 1

Query: # bool: self-splicing fitness (ln) of `UGUUAGCAAUAUUACGGCAA` >= -2
Reply: 1

Query: Dear colleague, could you confirm whether `UGCAAGCAAUAUUACGAUCA` has self-splicing fitness (ln) at or above -2?
Reply: 1

Query: Hi team, for `UGGUAGCAAUAUUACGAGGU` , is the recorded self-splicing fitness (ln) at or above -2?
Reply: 0

Query: State whether the measured self-splicing fitness (ln) reaches -2, counting equality as reaching it, for `UGUUAGCAAUAUUACGCACG`
Reply: 1

Reference source: the supplement of paper PMC7877785
